# experiment summary: in vitro
# condition: human, liver microsomes
# Description: Half life in human liver microsome at 2 mg/mL
measure name: half-life (h)

Example entries and their recorded answers appear below.
Ask: What does the record list as half-life for CN(C)CCOc1cc(-c2cn[nH]c2)c(F)cc1NC(=O)[C@H]1Cc2ccccc2CN1C ?
Result: 0.267

Ask: Repeat with COc1ccc2c(c1)C[C@H](C(=O)Nc1ccc(-c3cn[nH]c3)cc1SCCN(C)C)NC2
Result: 0.367

Ask: And then CN(C)CCOc1cc(-c2cn[nH]c2)ccc1NC(=O)[C@@H]1Cc2cc(Cl)ccc2CN1 , what is it?
Result: 0.283

I. NC(C(=O)Nc1ccc(-c2cn[nH]c2)cc1)c1ccc(Cl)cc1 (centres undefined)
II. COCCOc1cc(-c2cn[nH]c2)ccc1NC(=O)[C@H]1Cc2cc(OC)ccc2CN1
Ask: Between item I and item II , which reported half-life is smaller? In your reply, give the label of the chosen option.
Result: II
(II: 0.717 h, I: 1.4 h)
